Origin of the recorded values: BindingDB's records for patent US11396516

Target: Cytochrome P450 1A2 (Homo sapiens)
Sequence (P05177 whole entry): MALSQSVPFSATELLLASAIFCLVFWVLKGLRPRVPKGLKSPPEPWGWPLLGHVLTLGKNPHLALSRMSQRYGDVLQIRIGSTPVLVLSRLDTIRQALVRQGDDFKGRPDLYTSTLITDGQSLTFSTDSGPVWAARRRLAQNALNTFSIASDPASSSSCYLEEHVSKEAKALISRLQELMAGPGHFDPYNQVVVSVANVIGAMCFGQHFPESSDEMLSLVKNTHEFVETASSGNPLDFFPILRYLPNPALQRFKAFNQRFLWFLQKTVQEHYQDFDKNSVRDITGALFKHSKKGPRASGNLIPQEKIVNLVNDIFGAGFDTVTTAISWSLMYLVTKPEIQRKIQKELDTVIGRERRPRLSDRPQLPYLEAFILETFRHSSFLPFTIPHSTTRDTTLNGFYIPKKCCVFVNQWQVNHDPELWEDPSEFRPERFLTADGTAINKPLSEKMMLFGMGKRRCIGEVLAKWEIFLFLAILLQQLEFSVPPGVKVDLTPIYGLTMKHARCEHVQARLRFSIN
Readout: IC50 (nM)
Answers are plain numbers, in nM.

Prompt line: // fetch Cytochrome P450 1A2 (Homo sapiens) IC50 for COc1c2ccoc2cc2oc(C)cc(=O)c12
Response line: 240
